// note: IC50 values for Coagulation factor XI (Homo sapiens) were reported in different studies
Define the label as True when IC50 is strictly less than 2 µM and as False in all remaining cases.

> print(dat)
                                   compound                     system.under.test  assigned.class
1  CC(C)C[C@@H](NC1CCCC1)C(=O)N1CCC[C@H]1C(=O)NCc1ccc2c(N)nccc2c1  Coagulation factor XI (Homo sapiens)            True

Qu. Quick check: IC50 of CC(C)[C@H](NC(=O)[C@H](Cc1ccccc1)NNC(=O)c1ccco1)C(=O)N[C@@H](CCCNC(=N)N)C(=O)c1nccs1 under 2 µM?
Ans. False

Qu. Quick check: IC50 of O=C(/C=C/c1cc(Cl)ccc1-n1cnnn1)N[C@@H](CC(=O)N1CCSCC1)C(=O)Nc1ccc(C(=O)O)cc1 under 2 µM?
Ans. True

Qu. Quick check: IC50 of O=c1c2ccccc2nc(-c2ccc(OS(=O)(=O)O)cc2)n1Cc1cn(CCn2cc(Cn3c(-c4ccc(OS(=O)(=O)O)cc4)nc4ccccc4c3=O)nn2)nn1 under 2 µM?
Ans. False

Qu. Quick check: IC50 of COc1ccc(-c2ccc(C(=O)N[C@H](CO)C(C)(C)C)cc2C(=O)O)c(C(=O)Nc2cccc(C(N)=O)c2)n1 under 2 µM?
Ans. False

Qu. Quick check: IC50 of O=c1c2ccccc2nc(-c2ccc(OS(=O)(=O)O)cc2)n1Cc1cccc(Cn2c(-c3ccc(OS(=O)(=O)O)cc3)nc3ccccc3c2=O)c1 under 2 µM?
Ans. False

Qu. Quick check: IC50 of O=C(NCc1cc(Cl)ccc1-n1cnnn1)[C@@H]1CCCN1C(=O)[C@@H](CC1CCCCC1)NC1CCCCC1 under 2 µM?
Ans. False

Qu. Quick check: IC50 of CC(=O)Oc1cc(OS(=O)(=O)O)cc(-c2nc3ccccc3c(=O)n2CCCCn2cc(Cn3c(-c4cc(O)cc(OS(=O)(=O)O)c4)nc4ccccc4c3=O)nn2)c1 under 2 µM?
Ans. False

Qu. Quick check: IC50 of COc1ccc(-c2ccc(C(=O)N[C@H](CO)C(C)(C)C)cc2C(=O)O)c(C(=O)Nc2ccc3c(N)nccc3c2)n1 under 2 µM?
Ans. False

Qu. Quick check: IC50 of CC[C@@H](C)[C@@H](NC(C)C(F)F)C(=O)N1C[C@@](C)(O)C[C@H]1C(=O)NCc1ccc2c(N)nccc2c1 (stereo not given in full) under 2 µM?
Ans. True

Qu. Quick check: IC50 of CC(C)C[C@@H](NC1CCCCC1)C(=O)N1C[C@@H](F)C[C@H]1C(=O)NCc1ccc2c(N)nccc2c1 under 2 µM?
Ans. True

====

// note: IC50 values for Coagulation factor XI (Homo sapiens, UniProt P03951) were reported in different studies

Before answering, review these 3 worked examples.
> print(dat)
                           smiles.structure  recorded.endpoint  recorded.value
1  CC(C)C[C@H](NC(=O)NCc1ccc(Cl)c(Cl)c1)C(=O)N[C@@H](Cc1ccc(O)cc1)C(=O)N[C@@H](CCCNC(=N)N)C(=O)c1nccs1               IC50          0.2 µM
2  CC(C)C[C@H](NC(=O)NCc1ccccc1)C(=O)N[C@H](C(=O)N[C@@H](CCCNC(=N)N)C(=O)c1nccs1)C(C)C               IC50        0.136 µM
3  C=CCCC(=O)N[C@@H](C(=O)N[C@@H](CC(C)C)C(=O)NCc1c(CC=C)[nH]c2ccc(Cl)cc12)C1CCCCC1               IC50          103 µM

Let us examine a further case.
Qu. Bench note: what IC50 did CC(C)CC(=O)N[C@@H](CCCN=C(N)N)C(=O)c1nccs1 show?
Ans. 123 µM

====

// note: IC50 values for Coagulation factor XI (Homo sapiens, UniProt P03951) were reported in different studies
Your answer is read as µM, so omit the unit and give the number.

Before answering, review these 2 worked examples.
> print(dat)
                           smiles.structure  endpoint.unit  recorded.value
1  CO[C@H]1C[C@@H](C(=O)NCc2ccc3c(N)nccc3c2)N(C(=O)[C@@H](CC(C)C)NC2CCCCC2)C1             µM           0.263
2  N=C(N)c1ccc(CNC(=O)[C@H](Cc2ccc(N)cc2)NC(=O)[C@@H](CC2CCCCC2)NCC(=O)O)cc1             µM            0.58

Let us examine a further case.
Qu. Coagulation factor XI (Homo sapiens, UniProt P03951) / IC50 / CC(C)[C@H](NC(=O)[C@@H](NC(=O)N[C@H](C)c1ccc(Br)cc1)C1CCCCC1)C(=O)N[C@@H](CCCNC(=N)N)C(=O)c1nccs1 : value?
Ans. 0.01

====

// note: log10(IC50) values for Coagulation factor XI (Homo sapiens) were reported in different studies
Scale: decimal log of IC50, IC50 in µM.

Before answering, review these 3 worked examples.
> print(dat)
                           smiles.structure                     system.under.test  recorded.endpoint  recorded.value
1  O=c1c2ccccc2nc(-c2ccc(OS(=O)(=O)O)cc2)n1CCCCCn1cc(Cn2c(-c3ccc(OS(=O)(=O)O)cc3)nc3ccccc3c2=O)nn1  Coagulation factor XI (Homo sapiens)        log10(IC50)            1.77
2  O=c1c2ccccc2nc(-c2cccc(OS(=O)(=O)O)c2)n1Cc1cccc(Cn2c(-c3cccc(OS(=O)(=O)O)c3)nc3ccccc3c2=O)c1  Coagulation factor XI (Homo sapiens)        log10(IC50)            1.78
3  COc1ccc(-c2ccc(C(=O)NCC(C)(C)C)cc2C(=O)O)c(C(=O)Nc2ccc(C(=N)N)cc2)n1  Coagulation factor XI (Homo sapiens)        log10(IC50)            0.66

Let us examine a further case.
Qu. Coagulation factor XI (Homo sapiens) / log10(IC50) / CCN1CCN(C(=O)CC[C@H](NC(=O)/C=C/c2cc(Cl)ccc2-n2cnnn2)C(=O)Nc2ccc(C(=O)O)cc2)CC1 : value?
Ans. -1.05

====

// note: log10 of IC50 values for Coagulation factor XI (Homo sapiens) were reported in different studies
Scale: decimal log of IC50, IC50 in nM.

Before answering, review these 5 worked examples.
compound	log10 of IC50
CC(C)[C@H](NC(=O)[C@H](Cc1ccccc1)NNC(=O)NCc1ccc(F)cc1)C(=O)N[C@@H](CCCNC(=N)N)C(=O)c1nccs1	2.20
N=C(N)c1ccc(CNC(=O)C(Cc2ccc(CN)cc2)NC(=O)[C@@H](CC2CCCCC2)NCC(=O)O)cc1 (mixture of isomers)	4.63
N=C(N)c1ccc(CNC(=O)[C@H](Cc2ccc(O)cc2)NC(=O)[C@@H](CC2CCCCC2)NCC(=O)O)cc1	3.28
Nc1nccc2cc(CNC(=O)[C@@H]3CCCN3C(=O)[C@H](NC3CCCCC3)C3CCCCC3)ccc12	1.96
CC(C)[C@@H](NC1CCCCC1)C(=O)N1CCC[C@H]1C(=O)NCc1ccc2c(N)nccc2c1	2.37

Qu. Coagulation factor XI (Homo sapiens) / log10 of IC50 / CC(C)C[C@H](NC(=O)NCc1ccc(Cl)c(Cl)c1)C(=O)N[C@H](C(=O)N[C@@H](CCCN=C(N)N)C(=O)c1nccs1)C(C)C : value?
Ans. 1.80

Qu. Coagulation factor XI (Homo sapiens) / log10 of IC50 / NCc1ccc(B(O)O)cc1 : value?
Ans. 4.89

Qu. Coagulation factor XI (Homo sapiens) / log10 of IC50 / CC(C)[C@H](NC(=O)[C@H](Cc1ccccc1)NNC(=O)Nc1ccccc1)C(=O)N[C@@H](CCCNC(=N)N)C(=O)c1nccs1 : value?
Ans. 3.28

====

// note: IC50 values for Coagulation factor XI (Homo sapiens) were reported in different studies
Your answer is read as nM, so omit the unit and give the number.

> print(dat)
                           smiles.structure  recorded.endpoint  recorded.value
1  CC1(C)OB(c2ccc(NC(=N)N)cc2)OC1(C)C.O=C(O)C(F)(F)F               IC50            5900
2  CC(C)CN[C@H](CC(C)C)C(=O)N1CCC[C@H]1C(=O)NCc1ccc2c(N)nccc2c1               IC50            2690
3  CC(C)C[C@H](NC(=O)NCc1ccc(Cl)c(Cl)c1)C(=O)N[C@@H](Cc1ccccc1)C(=O)N[C@@H](CCCN=C(N)N)C(=O)c1nccs1               IC50             710

Let us examine a further case.
Qu. Coagulation factor XI (Homo sapiens) / IC50 / CC(C)[C@H](NC(=O)[C@H](CCCN=C(N)N)NC(=O)N[C@H](C)c1ccc(Br)cc1)C(=O)N[C@@H](CCCN=C(N)N)C(=O)c1nccs1 : value?
Ans. 7
